Biological target: HGFR (Homo sapiens)
Construct: purchased Upstate 14-526
Sequence (P08581 974-1390 limits assumed): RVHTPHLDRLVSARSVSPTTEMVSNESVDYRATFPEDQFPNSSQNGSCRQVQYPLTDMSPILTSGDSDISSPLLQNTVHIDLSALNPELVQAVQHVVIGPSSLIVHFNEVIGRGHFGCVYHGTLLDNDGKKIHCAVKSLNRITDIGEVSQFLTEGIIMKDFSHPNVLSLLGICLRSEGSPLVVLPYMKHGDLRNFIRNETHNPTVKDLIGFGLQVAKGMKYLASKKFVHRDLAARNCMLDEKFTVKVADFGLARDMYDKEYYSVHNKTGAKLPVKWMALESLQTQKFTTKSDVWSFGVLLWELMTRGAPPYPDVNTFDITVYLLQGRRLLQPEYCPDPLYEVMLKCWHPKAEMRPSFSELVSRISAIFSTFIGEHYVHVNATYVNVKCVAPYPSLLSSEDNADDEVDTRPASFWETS
Assay: HGFR continuous-coupled spectrophotometric assay
Type: biochemical
Settings: at 50 nM; Table 5, library procedure 40; read-out: % inhibition (percent c-MET inhibition)
experimental-readout: inhibition at 0.05 µM (%)

molecule: CC(Oc1cc(-c2ccc(C(=O)NCCCN3CCCC3=O)cc2)cnc1N)c1c(Cl)ccc(F)c1Cl (stereo not shown)
readout-number: 83

molecule: CC(Oc1cc(-c2ccc(C(=O)NCCc3c(Cl)cccc3Cl)cc2)cnc1N)c1c(Cl)ccc(F)c1Cl (stereo not shown)
readout-number: 53

molecule: CC(Oc1cc(-c2ccc(C(=O)NCCOCCO)cc2)cnc1N)c1c(Cl)ccc(F)c1Cl (stereo not shown)
readout-number: 76

molecule: CC(Oc1cc(-c2ccc(C(=O)N3CCC(O)(c4ccccc4)CC3)cc2)cnc1N)c1c(Cl)ccc(F)c1Cl (stereo not shown)
readout-number: 64

All values here come from patent US20050009840A1.
